meta.source: patent US20240293557A1

Consider the following molecules; for each one, report its pIC50.
// field semantics: pIC50 = negative decimal log of concentration (mol/L)

GET /values?item= O=C(COc1cccc2c1C(=O)N(C1CCC(=O)NC1=O)C2=O)NCCOCCOCCNC(=O)CN1CCC(NC(=O)c2n[nH]cc2NC(=O)c2c(Cl)cccc2Cl)CC1 (stereo not shown) &system= CDK9 (Homo sapiens (Human)) returns pIC50: 8.41

GET /values?item= O=C(COc1cccc2c1C(=O)N(C1CCC(=O)NC1=O)C2=O)NCCC(=O)N1CCC(NC(=O)c2n[nH]cc2NC(=O)c2c(Cl)cccc2Cl)CC1 (stereo not shown) &system= CDK9 (Homo sapiens (Human)) returns pIC50: 8.55

GET /values?item= "CC(C)(C)OC(=O)CN1CCC(NC(=O)c2n[nH]cc2NC(=O)c2c(Cl)cccc2Cl)CC1" &system= CDK9 (Homo sapiens (Human)) returns pIC50: 7.96

GET /values?item= O=C(COc1cccc2c1C(=O)N(C1CCC(=O)NC1=O)C2=O)NCCOCCNC(=O)CN1CCC(NC(=O)c2n[nH]cc2NC(=O)c2c(Cl)cccc2Cl)CC1 (stereo not shown) &system= CDK9 (Homo sapiens (Human)) returns pIC50: 8.48

====

Consider the following compounds; for each one, report its log10 IC50.
- Tested on: MOLM14 cells
- method: alamarBlue cell viability assay of MOLM14 cells
- Type: cell-based
- experimental_conditions: Homo sapiens, MOLM-14; MOLM14, 72 hr; read-out: Cell Viability (MOLM14 IC50-nM) 72 hr
A value of 2 here means IC50 of 100 in nM, since values are log10.

The measured log10 IC50 associated with CC(C)(C)OC(=O)N1CCC(NC(=O)c2n[nH]cc2NC(=O)c2c(Cl)cccc2Cl)CC1 [AMC-3-095] reads 3.30

The measured log10 IC50 associated with CC(C)(C)OC(=O)CN1CCC(NC(=O)c2n[nH]cc2NC(=O)c2c(Cl)cccc2Cl)CC1 [AMC-3-086] reads 3.20

The measured log10 IC50 associated with O=C(COc1cccc2c1C(=O)N(C1CCC(=O)NC1=O)C2=O)NCCOCCOCCNC(=O)CN1CCC(NC(=O)c2n[nH]cc2NC(=O)c2c(Cl)cccc2Cl)CC1 (centres unmarked) [CG-3-067] reads 3.85

The measured log10 IC50 associated with O=C1CCC(N2C(=O)c3cccc(OCC(=O)N4CCC(C(=O)N5CCC(NC(=O)c6n[nH]cc6NC(=O)c6c(Cl)cccc6Cl)CC5)CC4)c3C2=O)C(=O)N1 (centres unmarked) [SF-8-140] reads 3.26

The measured log10 IC50 associated with O=C(NC1CCNCC1)c1n[nH]cc1NC(=O)c1c(Cl)cccc1Cl [AMC-3-098, reference compound] reads 2.66

The measured log10 IC50 associated with O=C1CCC(N2C(=O)c3cccc(OCC(=O)N4CCC(NC(=O)CN5CCC(NC(=O)c6n[nH]cc6NC(=O)c6c(Cl)cccc6Cl)CC5)CC4)c3C2=O)C(=O)N1 (centres unmarked) [AMC-3-106] reads 3.91

The measured log10 IC50 associated with O=C(COc1cccc2c1C(=O)N(C1CCC(=O)NC1=O)C2=O)NCCOCCNC(=O)CN1CCC(NC(=O)c2n[nH]cc2NC(=O)c2c(Cl)cccc2Cl)CC1 (centres unmarked) [CG-3-066] reads 3.23

The measured log10 IC50 associated with O=C(COc1cccc2c1C(=O)N(C1CCC(=O)NC1=O)C2=O)NCCCCCCC(=O)N1CCC(NC(=O)c2n[nH]cc2NC(=O)c2c(Cl)cccc2Cl)CC1 (centres unmarked) [CG-3-071] reads 3.28

====

- Test system: MOLM14 cells
- method: alamarBlue cell viability assay of MOLM14 cells
- Type: cell-based
- experimental_conditions: Homo sapiens, MOLM-14; MOLM14, 48 hr; read-out: Cell Viability (MOLM14 IC50-nM) 48 hr
readout: IC50
Output should be the measured figure followed by the unit it is expressed in.

The measured IC50 associated with "CC(C)(C)OC(=O)N1CCC(NC(=O)c2n[nH]cc2NC(=O)c2c(Cl)cccc2Cl)CC1" reads 1680 nM

The measured IC50 associated with O=C(COc1cccc2c1C(=O)N(C1CCC(=O)NC1=O)C2=O)NCCCCCCC(=O)N1CCC(NC(=O)c2n[nH]cc2NC(=O)c2c(Cl)cccc2Cl)CC1 (centres unmarked) reads 1710 nM

The measured IC50 associated with O=C1CCC(N2C(=O)c3cccc(OCC(=O)N4CCC(C(=O)N5CCC(NC(=O)c6n[nH]cc6NC(=O)c6c(Cl)cccc6Cl)CC5)CC4)c3C2=O)C(=O)N1 (centres unmarked) reads 3000 nM

The measured IC50 associated with O=C(COc1cccc2c1C(=O)N(C1CCC(=O)NC1=O)C2=O)NCCOCCOCCNC(=O)CN1CCC(NC(=O)c2n[nH]cc2NC(=O)c2c(Cl)cccc2Cl)CC1 (centres unmarked) reads 4320 nM

The measured IC50 associated with "CC(C)(C)OC(=O)CN1CCC(NC(=O)c2n[nH]cc2NC(=O)c2c(Cl)cccc2Cl)CC1" reads 1560 nM

The measured IC50 associated with O=C(COc1cccc2c1C(=O)N(C1CCC(=O)NC1=O)C2=O)NCCOCCNC(=O)CN1CCC(NC(=O)c2n[nH]cc2NC(=O)c2c(Cl)cccc2Cl)CC1 (centres unmarked) reads 1970 nM

The measured IC50 associated with O=C(NC1CCNCC1)c1n[nH]cc1NC(=O)c1c(Cl)cccc1Cl [AMC-3-098, reference compound] reads 178 nM

The measured IC50 associated with O=C1CCC(N2C(=O)c3cccc(OCC(=O)N4CCC(NC(=O)CN5CCC(NC(=O)c6n[nH]cc6NC(=O)c6c(Cl)cccc6Cl)CC5)CC4)c3C2=O)C(=O)N1 (centres unmarked) reads 6070 nM
